Reference for the values: paper PMC10721899

- ASSAY_REMARKS: Cytotoxicity, MTT assay
- Assay type: cell-based, mouse
- PARTICULARS: mouse, L929 mouse fibroblast cells (NCTC clone 929); L929, 24 h, at the MIC; read-out: cell viability
Ends that are not written are not given here.
ENDPOINT_LABEL: viability at 24 h, 3.91 μg/mL (%)

>  <SUBSTANCE>
KWKLFKKIGKVLKKL-NH2 [CM-10K14K, KWKLFKKIGKVLKKL-NH2]

>  <OBSERVED_MEASUREMENT>
100

$$$$
